system: CD69 expression on CD19+ B cells in human whole blood; experiment: In Vitro Whole Blood CD69 Assay; format: cell-based; conditions: B-cell; human heparinized whole blood, anti-human IgD stimulation, overnight (18 to 22 hours), percentage of CD19+ B cells expressing CD69, flow cytometry; read-out: In Vitro HWB CD69 Assay IC50 Score
PROPERTY: IC50

Illustrative cases are given below, each with its answer.
compound="C=CC(=O)N1CC2CCC1CC2c1nc(-c2cnn(C)c2)cn2nccc12 (centres unmarked)" property=IC50 measured="1 to 10 µM"
compound="C=CC(=O)N1C[C@H]2C[C@@H](c3nc(-c4cnn(C)c4)cn4nccc34)C[C@H]2C1 (single isomer, unassigned)" property=IC50 measured="< 1 µM"
compound="C=CC(=O)N1CCCC(c2nc(-c3cnn(C)c3)cn3nccc23)CC1 (centres unmarked)" property=IC50 measured="1 to 10 µM"
compound="C=CC(=O)N(C)[C@@H]1CCC[C@@H](c2nc(-c3cnn(C)c3)cn3nccc23)C1 (single isomer, unassigned)" property=IC50 measured="1 to 10 µM"

Please examine the following record next.
Fill in the blank: the reported IC50 of C=CC(=O)N1C[C@H]2C[C@H](c3nc(-c4cnn(C)c4)cn4nccc34)C[C@H]2C1 is ____.
1 to 10 µM

* * *

system: CD69 expression on CD19+ B cells in human whole blood; experiment: In Vitro Whole Blood CD69 Assay; assay type: cell-based; settings: B-cell; human heparinized whole blood, anti-human IgD stimulation, overnight (18 to 22 hours), percentage of CD19+ B cells expressing CD69, flow cytometry; read-out: In Vitro HWB CD69 Assay IC50 Score
Here, each record is paired with measured IC50 data.

compound="C=CC(=O)N(C)[C@@H]1CC[C@H](C(=O)c2nc(-c3cnn(C)c3)cn3nccc23)C1 (stereo in doubt)" measured="< 1000 nM"
compound="C=CC(=O)N(C)[C@H]1CC[C@H](C(=O)c2nc(-c3cnn(C)c3)cn3nccc23)C1 (relative stereo)" measured="1000 to 10000 nM"
compound="C=CC(=O)N(C)C1CCC(C(=O)c2nc(-c3cnn(C)c3)cn3nccc23)C1 (single isomer, unassigned)" measured="1000 to 10000 nM"
compound=C=CC(=O)N1CCC(c2nc(-c3cnn(C)c3)cn3nccc23)CC1 measured="1000 to 10000 nM"
compound=C=CC(=O)N1CCC(c2nc(-c3cnn(C)c3)cn3ncc(F)c23)CC1 measured="< 1000 nM"
compound=C=CC(=O)N1CCC(c2cc(-c3cnn(C)c3)cn3nccc23)CC1 measured="1000 to 10000 nM"

Please examine the following record next.
Fill in the blank: the reported IC50 of C=CC(=O)N1C2CCCC1CC(c1nc(-c3cnn(C)c3)cn3nccc13)C2 (stereo not shown) is ____.
1000 to 10000 nM

* * *

BTK (Homo sapiens, UniProt Q06187) IC50 data
Sequence (Q06187 whole entry): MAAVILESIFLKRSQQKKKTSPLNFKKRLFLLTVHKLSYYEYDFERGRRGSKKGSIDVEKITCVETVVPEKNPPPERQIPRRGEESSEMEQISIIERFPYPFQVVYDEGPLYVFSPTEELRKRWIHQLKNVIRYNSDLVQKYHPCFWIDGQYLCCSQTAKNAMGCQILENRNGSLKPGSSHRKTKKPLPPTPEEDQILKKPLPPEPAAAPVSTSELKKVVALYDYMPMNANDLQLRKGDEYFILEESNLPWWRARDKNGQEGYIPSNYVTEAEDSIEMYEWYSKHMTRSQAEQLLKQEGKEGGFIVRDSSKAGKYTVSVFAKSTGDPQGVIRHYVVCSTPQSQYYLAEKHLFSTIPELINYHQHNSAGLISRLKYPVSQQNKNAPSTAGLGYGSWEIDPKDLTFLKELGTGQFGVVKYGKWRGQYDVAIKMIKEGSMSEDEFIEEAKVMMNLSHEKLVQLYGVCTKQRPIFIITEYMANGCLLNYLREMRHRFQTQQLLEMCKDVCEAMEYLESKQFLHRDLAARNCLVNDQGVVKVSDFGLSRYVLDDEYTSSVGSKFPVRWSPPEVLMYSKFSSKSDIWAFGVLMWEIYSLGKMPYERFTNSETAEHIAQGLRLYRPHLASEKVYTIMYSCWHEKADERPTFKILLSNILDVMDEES

Illustrative cases are given below, each with its answer.
molecule="C=CC(=O)N(C)C1CCC(C(=O)c2nc(-c3cnn(C)c3)cn3nccc23)C1 (single isomer, unassigned)" property=IC50 measured="1 to 10 nM"
molecule="C=CC(=O)N1C2CCC1CC(c1nc(-c3cnn(C)c3)cn3nccc13)C2 (centres unmarked)" property=IC50 measured="1 to 10 nM"
molecule="C=CC(=O)N(C)C[C@H]1CC[C@H](c2nc(-c3cnn(C)c3)cn3nccc23)C1 (stereo in doubt)" property=IC50 measured="10 to 1000 nM"
molecule="C=CC(=O)N1CCC(c2nc(-c3cnn(C)c3)cn3nccc23)CC1C (centres unmarked)" property=IC50 measured="10 to 1000 nM"
molecule="C=CC(=O)N(C)C[C@@H]1CC[C@H](c2nc(-c3cnn(C)c3)cn3nccc23)C1 (stereo in doubt)" property=IC50 measured="10 to 1000 nM"

Hi! What's the reported IC50 for C=CC(=O)N1CCCC(c2nc(-c3cnn(C)c3)cn3nccc23)CC1 (centres unmarked) on BTK (Homo sapiens, UniProt Q06187)?
10 to 1000 nM

Hi! What's the reported IC50 for C=CC(=O)N1CCCC(c2nc(-c3cnn(C)c3)cn3nccc23)C1 (centres unmarked) on BTK (Homo sapiens, UniProt Q06187)?
10 to 1000 nM

Hi! What's the reported IC50 for C=CC(=O)N1C[C@H]2C[C@H](c3nc(-c4cnn(C)c4)cn4nccc34)C[C@H]2C1 on BTK (Homo sapiens, UniProt Q06187)?
1 to 10 nM
